test system: corn (Zea mays); experiment: Test C preemergence; type: in vivo; conditions: 125 g ai/ha, scale 0 to 100, 0 no effect, 100 complete control
Provide the reported Plant response rating, Corn of each item.
Just the number.

Record CN1CC(c2cccc(C(F)(F)F)c2)C(C(=O)Nc2ccccc2S(C)(=O)=O)C1=O (centres unmarked) . Reported Plant response rating, Corn: 75

Record CN1CC(c2cccc(C(F)(F)F)c2)C(C)(C(=O)Nc2ccccc2F)C1=O (centres unmarked) . Reported Plant response rating, Corn: 55

Record CN1CC(c2ccc(C(F)(F)F)cc2)C(C(=O)Nc2ccccc2S(C)(=O)=O)C1=O (centres unmarked) . Reported Plant response rating, Corn: 5

Record CN1CC(c2cccc(OC(F)F)c2)C(C(=O)Nc2ccccc2F)C1=O (centres unmarked) . Reported Plant response rating, Corn: 75

Record Cc1ccc(C2CN(C)C(=O)C2C(=O)Nc2cccc(F)c2F)cc1F (centres unmarked) . Reported Plant response rating, Corn: 75

Record CN1CC(c2ccc(F)c(C(F)(F)F)c2)C(C(=O)Nc2cccc(F)c2F)C1=O (centres unmarked) . Reported Plant response rating, Corn: 65

Record Cc1cccc(C2CN(C)C(=O)C2C(=O)Nc2cccc(F)c2F)c1 (centres unmarked) . Reported Plant response rating, Corn: 80

Record CN1CC(c2ccc(C(C)(F)F)cc2)C(C(=O)Nc2ccccc2F)C1=O (centres unmarked) . Reported Plant response rating, Corn: 65

###

test system: Galium (catchweed bedstraw, Galium aparine); assay: Test A postemergence; type: in vivo; conditions: Galium, post-emergence, 240 h, 125 g ai/ha, postemergence; visual injury after approximately 10 d; 0 to 100 scale (0 no effect, 100 complete control); read-out: Plant response rating, Galium
recorded metric: pest or weed control at 125 g/ha
Answer format: value, then unit.

Record CSc1ccccc1NC(=O)[C@H]1C(=O)N(C)C[C@@H]1c1ccc(C)c(C)c1 [Compound 733] . Reported pest or weed control at 125 g/ha: 20%

Record CS(=O)(=O)c1ccccc1NC(=O)[C@H]1C(=O)NC[C@@H]1c1ccc(OC(F)F)cc1 [Compound 787] . Reported pest or weed control at 125 g/ha: 60%

Record Cc1cc([C@H]2CNC(=O)[C@@H]2C(=O)Nc2cccc(F)c2F)ccc1Cl [Compound 790] . Reported pest or weed control at 125 g/ha: 50%

Record CN1C[C@H](c2ccc3c(c2)CCC3)[C@@H](C(=O)Nc2ccccc2F)C1=O [Compound 742] . Reported pest or weed control at 125 g/ha: 50%

###

Provide the reported Plant response rating, Waterhemp of each item.
tested on: waterhemp (common waterhemp, Amaranthus rudis); assay: Test C preemergence; assay type: in vivo; settings: 62 g ai/ha, scale 0 to 100, 0 no effect, 100 complete control
Just the number.

Record CN1CC(c2cccc(C(F)(F)F)c2)C(C)(C(=O)Nc2ccccc2F)C1=O (stereo not drawn) [Compound 428] . Reported Plant response rating, Waterhemp: 0

Record CN1CC(c2ccc(C(F)(F)F)cc2)C(C(=O)Nc2ccccc2S(C)(=O)=O)C1=O (stereo not drawn) [Compound 624] . Reported Plant response rating, Waterhemp: 90

Record CN1CC(c2cccc(OC(F)(F)C(F)F)c2)C(C(=O)Nc2ccc(F)cc2F)C1=O (stereo not drawn) [Compound 393] . Reported Plant response rating, Waterhemp: 80

Record CN1CC(c2cccc(C(F)(F)F)c2)C(C(=O)Nc2cccc(F)c2F)C1=O (stereo not drawn) [Compound 636] . Reported Plant response rating, Waterhemp: 75

Record CN1CC(c2ccc(C(C)(F)F)cc2)C(C(=O)Nc2ccccc2F)C1=O (stereo not drawn) [Compound 691] . Reported Plant response rating, Waterhemp: 95

Record CN1CC(c2cccc(C(F)(F)F)c2)C(C(=O)Nc2ccccc2S(C)(=O)=O)C1=O (stereo not drawn) [Compound 637] . Reported Plant response rating, Waterhemp: 80
